tested on: murine normal gastric organoid; experiment: IC50 (viability, PrestoBlue) (log10 nM); conditions: exposure time: 72 h
Measured IC50 (log10 nM) of individual entries
Give only the figure.

Request: Find the recorded IC50 (log10 nM) belonging to `CCN(CC)CCNC(=O)c1c(C)[nH]c(/C=C2\C(=O)Nc3ccc(F)cc32)c1C` and report it.
Response: 3.8

Request: Would you kindly repeat that for `CCOc1cc2ncc(C#N)c(Nc3ccc(OCc4ccccn4)c(Cl)c3)c2cc1NC(=O)/C=C/CN(C)C` ?
Response: 2.48

Request: Would you kindly repeat that for `N#CCNC(=O)c1ccc(-c2ccnc(Nc3ccc(N4CCOCC4)cc3)n2)cc1` ?
Response: 3.48

Request: Would you kindly repeat that for `CC(C)Nc1cc(-c2c[nH]c(C(=O)N[C@H](CO)c3cccc(Cl)c3)c2)c(Cl)cn1` ?
Response: 2.79
